protocolSummary: Stability of analytes in rat plasma (QC samples) under storage conditions
particulars: middle QC (40, 800, 160, 20, 2 ng/mL in the same order), n = 5
In this section, each of the compounds is paired with its reported Stability, Autosampler at 4°C for 24 h, Mean.
attributeMeasured: Stability, Autosampler at 4°C for 24 h, Mean

compound	result
COC(=O)C1=CO[C@@H](O[C@@H]2O[C@H](CO)[C@@H](O)[C@H](O)[C@H]2O)[C@@H]2[C@@H](C)[C@@H](O)C[C@H]12 [Loganin, loganin]	85.8%
COC(=O)C1=CO[C@@H](O[C@@H]2O[C@H](CO)[C@@H](O)[C@H](O)[C@H]2O)[C@@H]2[C@H](C)O[C@@H](O)C[C@H]12 [Morroniside, morroniside]	87.6%
OCC1=C[C@@H](O)[C@@H]2C=CO[C@@H](O[C@@H]3O[C@H](CO)[C@@H](O)[C@H](O)[C@H]3O)[C@H]12 [Aucubin, aucubin]	92.5%
O=Cc1ccc(O)c(O)c1 [Protocatechuic aldehyde, protocatechuic aldehyde]	89.3%
O=C(/C=C/c1ccc(O)c(O)c1)O[C@@H]1C[C@](O)(C(=O)O)C[C@@H](O)[C@H]1O [Chlorogenic acid, chlorogenic acid]	93.7%
